System: HT-29 cells (colorectal adenocarcinoma)
Assay: Inhibition of cancer cell proliferation, HT-29 (CellTiterGlo, 72 hours)
Type: cell-based
Conditions: Homo sapiens
Catalogue of GI50 readings, one per entry.

[[record]]
compound = "C=CC(=O)Nc1ccccc1Nc1nc(Nc2cc(C(=O)NC)c(F)cc2C)ncc1C(F)(F)F [Compound I-80]"
reported_endpoint = "GI50"
observed_result = "< 0.1 µM"


Item: C=CC(=O)Nc1cc(OCC(N)=O)ccc1Nc1nc(Nc2cc(OC)ncc2C)ncc1C(F)(F)F [Compound I-398] | GI50: < 0.1 µM

Item: C=CC(=O)Nc1cc(C)ccc1Nc1nc(Nc2cc(OCCOC)ncc2C)ncc1C(F)(F)F [Compound I-359] | GI50: 0.501 to 0.999 µM

Item: C=CC(=O)Nc1cc(C)ccc1Nc1nc(N[C@H]2CCCN(C(=O)CO)C2)ncc1Cl [Compound I-140] | GI50: < 0.1 µM

Item: C=CC(=O)Nc1ccccc1Nc1nc(Nc2cc(C(=O)NOCCO)ccc2OC)ncc1C(F)(F)F [Compound I-74] | GI50: 0.101 to 0.5 µM

Item: C=CC(=O)Nc1ccccc1Nc1nc(Nc2cc(C(N)=O)c(OCCCNC(=O)CCCC(=O)NCCCOCCOCCOCCCNC(=O)CCCC[C@@H]3SC[C@@H]4NC(=O)N[C@@H]43)cc2C)ncc1Cl [Compound I-299] | GI50: > 1 µM

Item: C=CC(=O)Nc1ccccc1Nc1nc(NC2CCN(C=O)CC2)ncc1Cl [Compound I-124] | GI50: 0.101 to 0.5 µM
